# target or test system: human TREX2 (residues M44-A279) (Homo sapiens, UniProt Q9BQ50)
# Construct: human TREX2 (residues M44-A279, expressed in E. coli); His-Tev (His tag with TEV protease site) (N); made in house; host or cells: E. coli
# Sequence (Q9BQ50 whole entry, the tested form may be a part): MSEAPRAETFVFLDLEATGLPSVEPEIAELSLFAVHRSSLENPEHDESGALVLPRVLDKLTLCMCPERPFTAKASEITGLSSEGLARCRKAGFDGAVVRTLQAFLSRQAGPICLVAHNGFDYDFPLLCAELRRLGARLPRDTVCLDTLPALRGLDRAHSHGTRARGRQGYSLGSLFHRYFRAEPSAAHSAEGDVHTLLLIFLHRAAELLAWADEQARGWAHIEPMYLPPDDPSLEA
# assay protocol: TREX2 Biochemical Assay (fluorescence assay, degradation of dsDNA substrate)
# condition notes: 2.5 nM TREX2, 60 nM dsDNA substrate, 25 minutes at room temperature; read-out: hTREX2 EC50
# Method: Degradation of the dsDNA liberates free fluorophore to produce a fluorescent signal. […] After a 5-minute incubation at room temperature, plates were read in a laser sourced Envision (Perkin-Elmer), measuring fluorescence at 615 nm following excitation w/570 nm light. […]
pEC50: −log10 of the molar value.
measured property: pEC50

These solved cases illustrate the format of a correct answer.
O=C(C1CC1)N(Cc1cccnc1)Cc1ccc(Cl)cc1Cl : < 4.00
O=C(c1ccccc1Oc1ccccc1)N(Cc1cccnc1)Cc1cc(Cl)cc(Cl)c1 : < 4.00
O=C(c1cc(F)cc(F)c1)N(Cc1cccnc1)[C@@H](c1cn[nH]c1)c1ccc(Cl)cc1Cl : 4.00 to 5.00
O=C(c1ccc(Oc2ccc(F)cc2)cc1)N(Cc1cccnc1)Cc1ccc(Cl)cc1Cl : < 4.00

Q. // pEC50 lookup, key: O=C(c1cc(F)cc(F)c1)N(Cc1ccc(-c2nnn[nH]2)nc1)Cc1ccccc1Cl
A. 4.00 to 5.00

Q. // pEC50 lookup, key: O=C(c1ccc(F)c(Cl)c1)N(Cc1cccnc1)Cc1cc(Cl)cc(Cl)c1
A. < 4.00

Q. GET /values?readout=pEC50&item= O=C(c1cccc(F)c1)N(Cc1ccc(Cl)cc1)Cc1cccnc1
A. < 4.00

Q. Please look up its pEC50: O=C(c1cc(F)cc(F)c1)N(Cc1cccnc1)[C@H](c1cn[nH]c1)c1ccc(Cl)cc1Cl
A. 4.00 to 5.00

Q. I would be grateful if you could share the reported pEC50 for O=C(c1cccc(F)c1)N(Cc1cccnc1)Cc1ccc(Cl)cc1Cl .
A. 4.00 to 5.00

Q. Request the reported pEC50 associated with O=C(c1ccc(-c2ccccc2)cc1)N(Cc1cccnc1)Cc1ccc(Cl)cc1Cl
A. < 4.00

Q. Query: pEC50; subject: O=C(c1cc(F)cc(F)c1)N(Cc1ccc(-c2cnn[nH]2)nc1)Cc1ccccc1Cl
A. 4.00 to 5.00

Q. Please report the recorded pEC50 for COC(=O)CC[C@H](c1ccccc1Cl)N(Cc1cccnc1)C(=O)c1cc(F)cc(F)c1 .
A. 4.00 to 5.00

Q. What does the record list as pEC50 for O=C(O)c1ccc(CN(Cc2cccc(Cl)c2Cl)C(=O)c2cc(F)cc(F)c2)cn1 ?
A. > 6.00
